system: Mycolicibacterium smegmatis; assay: Antimicrobial activity against Mycobacterium smegmatis assessed as bacterial growth inhibition measured after 3 days by multimode plate reader analysis; format: functional; details: 72 h, time 3 day
propertyName: MIC99 (µg/mL)
Numbers only; they are read as µg/mL.

The examples below pair each entry with its known result.
compound="CC[C@@H](CO)NCCN[C@@H](CC)CO.Cl.Cl [ETHAMBUTOL HYDROCHLORIDE]" measured=0.098
compound=CCC(CC)C(=O)OC[C@H](CC)NCCN[C@@H](CC)COC(=O)C(CC)CC.Cl.Cl measured=1.6
compound=CC[C@@H](COC(=O)C(C)C)NCCN[C@@H](CC)COC(=O)C(C)C.Cl.Cl measured=6.3
compound=CC[C@@H](COC(=O)CC(C)C)NCCN[C@@H](CC)COC(=O)CC(C)C.Cl.Cl measured=6.3

API: the following record is the query input.
Entry under test: CC[C@@H](COC(=O)C1(C)CC1)NCCN[C@@H](CC)COC(=O)C1(C)CC1.Cl.Cl . Its MIC99 was 13
